Ref: ChEMBL document CHEMBL1201862

Test system: NCI-H23
method.notes: NCI tumour cell line growth inhibition, 48 h
Activity calls are given as the source filed them. No stated cut-off is given here; in the data, active = GI50 up to about 1.1 µM and inactive = higher.
Readings of GI50 for the listed compounds
assay.readout: GI50

>>> print(df.to_string())
                                   compound               result
0  OC12c3ccccc3C1CCCCCCCCCC21OCCO1 (stereo unspecified)  > 100 µM (inactive)
1                   CCOC(=O)C(=O)Nc1ccccc1C  > 100 µM (inactive)
2  NS(=O)(=O)c1ccc(-n2c(-c3cccs3)nc3ccc(I)cc3c2=O)cc1   25.8 µM (inactive)
3    CC(=O)N(C(C)=O)c1c(N)n(C)c(=O)[nH]c1=O  > 100 µM (inactive)
4  CN(C)Cc1cc(C(=O)/C=C/c2ccc(Cl)cc2Cl)cc(CN(C)C)c1O    6.9 µM (inactive)
5        OC(c1ccccc1Br)(c1ccccc1Br)C(F)(F)F   27.9 µM (inactive)
